- Measured target: β-secretase (BACE) (Homo sapiens, UniProt P56817)
- Construct: purchased Panvera
- Sequence (P56817 46-501): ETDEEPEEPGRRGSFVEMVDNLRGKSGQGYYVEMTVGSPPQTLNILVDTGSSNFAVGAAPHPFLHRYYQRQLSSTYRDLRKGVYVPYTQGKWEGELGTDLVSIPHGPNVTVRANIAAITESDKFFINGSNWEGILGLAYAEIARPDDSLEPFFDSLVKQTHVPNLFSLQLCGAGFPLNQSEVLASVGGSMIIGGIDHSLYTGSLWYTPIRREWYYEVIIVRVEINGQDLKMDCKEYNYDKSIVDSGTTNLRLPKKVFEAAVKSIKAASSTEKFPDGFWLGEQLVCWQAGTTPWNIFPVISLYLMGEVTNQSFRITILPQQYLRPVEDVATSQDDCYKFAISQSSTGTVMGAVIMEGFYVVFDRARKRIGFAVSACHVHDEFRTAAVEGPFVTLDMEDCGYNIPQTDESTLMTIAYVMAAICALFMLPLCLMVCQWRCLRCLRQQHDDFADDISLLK
- Method description: BACE FS1 % Inhibition Assay
- Format: biochemical
- Applied conditions: 1 μM test compound
Assign % Inhibition (FS) to each entry below.

Using the record for NC1=Nc2ccc(-c3ccccc3-c3ccccc3)cc2CN1CCNC(=O)C1CCCCC1 [Compound 544] , report its % Inhibition (FS).
<30%

Let us now turn to CCCC(=O)NCCN1Cc2cc(-c3cncnc3)ccc2N=C1N [Compound 569]
<30%

Entry to check: NC1=Nc2ccc(-c3ccc(Cl)cc3)cc2CN1CCNC(=O)C1CCCCC1 [Compound 626]
<30%

---

- Measured target: β-secretase (BACE) (Homo sapiens)
- Construct: purchased Panvera
- Method description: BACE FS1 % Inhibition Assay
- Format: biochemical
- Applied conditions: 1 μM test compound
Quantity measured: % Inhibition (FS)

Return reported % Inhibition (FS); argument: CC1CCC(C(=O)NCCN2Cc3cc(Oc4ccccc4)ccc3N=C2N)CC1 (stereo not shown) [Compound 191]
46%

Do the same for CN(C(=O)c1cccc(CN2Cc3cc(Oc4ccccc4-c4nc5ccccc5s4)ccc3N=C2N)c1)C1CCCCC1 [Compound 470] please
<30%

Ok, now C[C@@H](CNC(=O)C1CCCCC1)N1Cc2cc(Oc3ccccc3)ccc2N=C1N [Compound 486]
<30%

Could you do the same for NC1=Nc2ccc(Oc3ccccc3)cc2CN1C(CNC(=O)C1CCCCC1)Cc1ccc(O)cc1 (stereo not shown) [Compound 614] , please?
<30%

---

Assign % Inhibition (FS) to each entry below.
- Measured target: β-secretase (BACE) (Homo sapiens, UniProt P56817)
- Construct: purchased Panvera
- Method description: BACE FS1 % Inhibition Assay
- Format: biochemical
- Applied conditions: 3 μM compound; FS1 substrate

Which measured % Inhibition (FS) value corresponds to CC(C)(C)C(=O)NCCN1Cc2cc(-c3ccc4ccccc4c3)ccc2N=C1N ?
<30%

Next compound: CC(C)CCC(=O)NCCN1Cc2cc(-c3cnc4ccccc4c3)ccc2N=C1N
<30%

Same read-out for CN(C(=O)CCC(C1CCCCC1)N1Cc2cc(Oc3ccccc3)ccc2N=C1N)c1ccc(C(=O)O)cc1 (stereo not drawn) ?
<30%

Queued: NC1=Nc2ccc(-c3cnc4ccccc4c3)cc2CN1CCNC(=O)C1CCCC1
<30%

// same read-out, input: NC1=Nc2ccc(C3=CCCCC3)cc2CN1CCNC(=O)C1CCC(C(F)(F)F)CC1 (stereo not drawn)
<30%

Record: CN(C(=O)CCC(C1CCCCC1)N1Cc2cc(Oc3ccccc3)ccc2N=C1N)C1CCC(c2nn[nH]n2)CC1 (stereo not drawn)
<30%

Next record, please: CC(=O)N1CCC(C(=O)NCCN2Cc3cc(C4=CCCCC4)ccc3N=C2N)CC1
<30%

Okay, and COc1ccccc1-c1ccc2c(c1)CN([C@@H](CCC(=O)N(C)Cc1cnn(-c3ccccc3)c1)C1CCCCC1)C(N)=N2 ?
72%

Also check COc1ccccc1-c1ccc2c(c1)CN([C@@H](CCC(=O)N(C)Cc1csc(-c3ccccc3)n1)C1CCCCC1)C(N)=N2
72%

// next record CNC(=O)C1CCC(N(C)C(=O)CCC(C2CCCCC2)N2Cc3cc(Oc4ccccc4)ccc3N=C2N)CC1 (stereo not drawn)
97%

Try the compound COc1ccccc1-c1ccc2c(c1)CN(CCNC(=O)C1CCC(C(F)(F)F)CC1)C(N)=N2 (stereo not drawn)
64%

Request: NC1=Nc2ccc(-c3ccc4ccccc4c3)cc2CN1CCNC(=O)CCC(F)(F)F
80%

---

What % Inhibition (FS) was measured for each of the following?
- Measured target: β-secretase (BACE) (Homo sapiens, UniProt P56817)
- Construct: purchased Panvera
- Method description: BACE FS1 % Inhibition Assay
- Assay type: biochemical
- Applied conditions: 1 μM compound; FS1 substrate
Give your result in % as a bare value.

% Inhibition (FS) lookup needed for NC1=Nc2ccc(-c3ccccc3F)cc2CN1CCNC(=O)C1CCOCC1 [Compound 687] , thanks.
50

Record: Cc1ccccc1-c1ccc2c(c1)CN(CCNC(=O)CCC(C)C)C(N)=N2 [Compound 661]
98

Also COC(=O)[C@@H](COCc1ccccc1)N(C)C(=O)CC[C@@H](C1CCCCC1)N1Cc2cc(Oc3ccccc3)ccc2N=C1N [Compound 779] ?
107
